The values you see were collected from patent US20250320252A1.

Biological target: T1, human GIP receptor (human, UniProt P48546 22-466)
T1 sequence (looked up): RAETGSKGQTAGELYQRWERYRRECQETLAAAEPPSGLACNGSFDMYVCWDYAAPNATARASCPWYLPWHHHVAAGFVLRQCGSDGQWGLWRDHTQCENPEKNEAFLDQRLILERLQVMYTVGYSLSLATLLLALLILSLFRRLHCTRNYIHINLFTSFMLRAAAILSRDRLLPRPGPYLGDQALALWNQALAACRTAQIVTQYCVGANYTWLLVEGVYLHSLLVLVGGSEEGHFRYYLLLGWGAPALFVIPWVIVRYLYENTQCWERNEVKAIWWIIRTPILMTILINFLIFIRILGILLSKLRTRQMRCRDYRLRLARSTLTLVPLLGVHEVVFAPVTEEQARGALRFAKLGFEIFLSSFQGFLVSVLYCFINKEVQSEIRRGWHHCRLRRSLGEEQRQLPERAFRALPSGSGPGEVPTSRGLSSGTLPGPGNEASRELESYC
Experiment: cell-based or functional assay
Bridge positions count the residues as written; N and C are the ends. Square brackets hold non-standard residues; d marks the D form. Ends that are not written are not given here. Nle = CCCC[C@H](N)C(=O)O; K4 = not defined here; K5 = not defined here; Aib = CC(C)(N)C(=O)O
Catalogue of EC50 [nM] of receptor-mediated cAMP synthesis readings, one per entry.

Record excerpt, results attached:
H-Y[Aib]EGTFHSDYDIYKDKQAA[Nle]KFVAWLLAGGPSSGAPPPS-NH2 (linker 14-21 via K4; not fully specified; reading uncertain) [ZA-42 - K4] | 20.4 nM
H-Y[Aib]EGTFHSDYDIYKDKQAA[Nle]KFVAWLLAGGPSSGAPPPS-NH2 (linker 14-21 via K5; not fully specified; reading uncertain) [ZA-42 - K5] | 303 nM
Y[Aib]EGTFTSDYSIYKDKQAA[Aib]KFVNWLLAGGPSSGAPPPS-NH2 (bridge 14-21 via K5; reading uncertain) [mCLZ715] | 0.02 nM

// moving on: another record for EC50 [nM] of receptor-mediated cAMP synthesis
Return reported EC50 [nM] of receptor-mediated cAMP synthesis; argument: H-Y[Aib]EGTFHSDYDIYKDKQAA[Aib]KFVQWLLAGGPSSGAPPPS-NH2 (bridge 14-21 via K5; reading uncertain) [ZA-41 - K5]
12.6 nM
